List of composite z-score values.
tested on: Neuregulin-1 EGF-like domain; test: small molecules binding NRG1 EGF domain – biochemical, small-molecule microarray, 635 nm fluorescence, primary screen (AID 1081); settings: higher = more signal;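 also: binding of the protein to compounds printed on small-molecule microarray slides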

compound	composite z-score
C[C@]1(C(=O)NCC(F)(F)F)c2ccccc2C(=O)N(Cc2cc(F)cc(C(F)(F)F)c2)[C@H]1c1ccc(CO)cc1	0.623
CN1C(=O)C2C(C1=O)C1C=C(c3ccc(CO)cc3)C2C(C2CC2)N1Cc1cc2c(cc1Br)OCO2 (stereo unspecified)	1.24
O[C@@H](Cc1ccccc1)[C@@H](/C=C/c1ccccc1)NCc1ccccc1Br	-0.639
CC(C)CNC(=O)[C@@]1(C)c2ccccc2C(=O)N(C(C)C)[C@H]1c1ccc(CO)cc1	-0.266
NC(=O)NCC#Cc1ccc2c(c1)[C@]1(C(=O)N2)[C@H](C(=O)NC[C@H](O)c2ccccc2)[C@H]2C(=O)O[C@H](c3ccccc3)[C@H](c3ccccc3)N2[C@@H]1c1ccccc1OCCO	0.997
CN(C)CCCCCCNC(=O)[C@@H]1C[C@@H]2C(=O)N[C@@H](Cc3ccccc3)C(=O)N2[C@@H]1c1cccc(OCCO)c1	1.33
C=CCC(OC(C)=O)[C@@H]1[C@@H](N(Cc2ccc(-c3cccc(C(F)(F)F)c3)o2)C(=O)Cc2ccc(OC)cc2)c2cc(OCCCO)ccc2N1C(=O)Cc1ccc(OC)cc1 (stereo partly specified)	-0.92
COC(=O)[C@@]1(Cc2ccc(F)cc2)[C@H]2c3cc(C(=O)N4CCCC4)n(CCc4ccc(OC)c(Br)c4)c3C[C@H]2CN1C(=O)c1ccccc1	1.29
COCCCNC(=O)[C@]1(Cc2ccccc2N=[N+]=[N-])N=C(c2ccc(OCCCO)cc2)O[C@@H]1c1ccccc1CN=[N+]=[N-]	1.33
O=C1OCCC=C[C@H]2OC34C=CCN(CCN5CCOCC5)C(=O)[C@H]3N(CCO)C(=O)[C@@H]4C12 (stereo partly specified)	0.916
CCOC(=O)C=Cc1cccc(OC)c1O	0.189
CC(C)(C)OC(=O)CC[C@]1(C(=O)NCC(O)CO)N=C(c2ccc(OCCCO)cc2)O[C@H]1c1ccccc1CN=[N+]=[N-] (stereo partly specified)	0.722
COc1ccc([Si](C)(C)[C@@H]2[C@@H](CC(=O)N3Cc4ccccc4C[C@H]3CO)O[C@]3(C(=O)N(Cc4cccc(N5C(=O)COc6ccccc65)c4)c4ccccc43)[C@H]2C)cc1	0.725
O=c1cccc(-c2cccc3ccccc23)o1	0.75
C=CCN1Cc2ccccc2C[C@@]2(COC(c3ccc(OCCCO)cc3)=N2)C1=O	1.31
CN1C(=O)C2C=CC(C(O)c3ccc(Br)cc3)N(Nc3ccccc3)C2C1=O (stereo unspecified)	0.728
CCCC[C@H]1OB(O)C[C@H]2C1=C(C)Cn1c(=O)n(-c3ccccc3)c(=O)n12	0.129
C=CCN1C(=O)[C@@]2(O[C@@H](CCO)[C@H]([Si](C)(C)c3ccc(OC)cc3)[C@H]2C)c2cc(NC(C)=O)ccc21	1.2
COCCn1c(C(=O)N(C)C)cc2c1C[C@H]1CN(C(=O)c3ccccc3)[C@@](Cc3ccc(F)cc3)(C(=O)OC)[C@@H]21	0.998
C=CCC(OC(C)=O)[C@@H]1[C@@H](N(Cc2cc3ccccc3o2)C(=O)c2cccc3ccccc23)c2cc(OCCCO)ccc2N1C(=O)Cc1ccc2ccccc2c1 (stereo partly specified)	0.195
[N-]=[N+]=NCc1ccccc1C[C@]1(C(=O)N2CCOCC2)N=C(c2ccc(OCCCO)cc2)O[C@H]1c1ccccc1	0.542
CCCCCCC#C[Si](O[C@H](c1ccccc1)c1cn([C@H](C)c2ccccc2)nn1)(C(C)C)C(C)C	-0.333
O=c1cccc(-c2ccc3ccccc3c2)o1	-0.602
[N-]=[N+]=Nc1ccccc1C[C@]1(C(=O)N2CCCCC2)N=C(c2ccc(OCCCO)cc2)O[C@H]1c1ccccc1N=[N+]=[N-]	1.01
COc1cc(CO)cc(I)c1O[C@H]1C=C(C(=O)NCCO)C[C@@H](N(CCc2cccc(F)c2)C(=O)CCC2CCCC2)[C@@H]1O	1.29
C#C[C@H](O[Si](C#CCCCCCC)(C(C)C)C(C)C)c1ccccc1	0.0885
Cc1cccc(/C=C/C=O)c1	0.928
O=C(NCCN1CCOCC1)[C@@H]1c2ccccc2C(=O)N(Cc2cc(F)cc(C(F)(F)F)c2)[C@H]1c1ccc(CO)cc1	0.591
Cc1ccc(S[C@]2(C(=O)NCc3ccccc3)CC(=O)N(Cc3cc(C(F)(F)F)cc(C(F)(F)F)c3)[C@@H]2c2ccc(CO)cc2)cc1	0.246
COCCOC(=O)N1C(=O)[C@@]2(c3ccccc31)[C@H](c1ccc(O)cc1)N1[C@H](c3ccccc3)[C@H](c3ccccc3)OC(=O)[C@H]1[C@@H]2C(N)=O	0.651
Cc1c(NC(=O)/C(C#N)=C/C=C/c2ccccc2)c(=O)n(-c2ccccc2)n1C	0.825
